B1: CPEB3 Ribozyme (parent)
chain: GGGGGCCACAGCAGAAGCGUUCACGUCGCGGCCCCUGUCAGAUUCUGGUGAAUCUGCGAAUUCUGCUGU

- Variants of: B1
- Experiment summary: self-cleavage, relative activity (ratio to wild type); higher = more cleavage; co-transcriptional
Threshold rule: self-cleavage greater than or equal to 0.5 is criterion met; below that, criterion not met.

Worked examples follow.
| Alteration | Label value |
| --- | --- |
| A16U G31A | criterion not met |
| G17C C27A | criterion not met |
| C7U U49G | criterion met |
| G3A U49A | criterion met |
| C34A A59G | criterion met |
| A15U A51G | criterion met |
| G37C C63U | criterion not met |
| A51U G68U | criterion met |

Q: Evaluate G19U U69A : self-cleavage at minimum 0.5?
A: criterion met

Q: Is self-cleavage at least 0.5? Consider G48C U61C
A: criterion met
